# System: NCI-H522 lung
# assay.comment: NCI-60 one-dose screen, 48 h
# assay.conditions: 10 µM unless noted
This is part of a sample that, as a whole, favours compounds with a hit. Of some 83,000 tested, about 20% had one in any assay. The source made the active and inactive calls. The calls were made as follows: active = growth percent below 10; inactive = the rest.
Just give me one of these, please: active, inactive

These solved cases illustrate the format of a correct answer.
| compound | target.or.test.system | class.label |
| --- | --- | --- |
| Cc1nn(-c2ccccc2)c2c1N=c1s/c(=C\c3ccc(C(F)(F)F)cc3)c(=O)n1CN2 | NCI-H522 lung | inactive |
| CC1=NN(c2ccc(S(=O)(=O)O)cc2)C(=O)C1N=Nc1ccc(-c2ccc(N=Nc3ccc(OS(=O)(=O)c4ccc(C)cc4)cc3)c(S(=O)(=O)O)c2)cc1 (stereo not given) | NCI-H522 lung | inactive |
| COc1cc(CCCO)c(OC)c(OC)c1OC | NCI-H522 lung | inactive |
| O=S(=O)(NCCCNc1cc(-c2c(-c3cccc(O)c3)nc3sccn23)ccn1)c1cccc2ccccc12 | NCI-H522 lung | inactive |
| Cc1ccc(-c2nc(N3CCN(C(=O)c4ccc(OC(F)(F)F)cc4)CC3)c3ccccc3n2)cc1 | NCI-H522 lung | inactive |

# ---- query compound ----
Q: Tell me the recorded outcome of this test for `COc1ccc(-c2csc(NC(=O)N3CCN(c4cc5c(cc4F)c(=O)c(C(=O)O)cn5C4CC4)CC3)n2)cc1` .
Result: active

* * *

# Test system: SF-539 CNS
# assay.comment: NCI-60 one-dose screen, 48 h (100 = growth as untreated, 0 = no growth, -100 = all killed)
# assay.conditions: 10 µM unless noted
Compounds without any hit were thinned out: in the full panel of roughly 83,000, 20% have a hit.
measured.metric: growth (%)
Numbers only, in %.

Some solved cases for reference:
| molecule | measured.metric | result.value |
| --- | --- | --- |
| CCc1ccccc1-n1c(N)c(C#N)c(-c2ccc(Cl)cc2)c(C#N)c1=O | growth | 103 |
| NS(=O)(=O)c1ccc(-n2nc(C(=O)N/N=C\c3ccc(F)cc3)cc2-c2ccc(Br)cc2)cc1 | growth | 89.7 |
| CC/C=C\C[C@@H]1C/C=C2/C(=O)C=C[C@H]2C/C=C\CCCC(=O)O1 | growth | -64.3 |
| COc1cccc(-c2nc(-c3ccc(NC(=O)c4ccccc4)cc3)[nH]c2-c2ccnc(Br)c2)c1 | growth | -5.94 |

Give measured growth for every item shown.
1. NCCCNc1nc2ccccc2c2c(=O)c3cc(C(F)(F)F)ccc3sc12
2. C=C1C(=O)O[C@H]2[C@H]1CC/C(COC(=O)CCC(=O)NCCOCCOCC(=O)Nc1ccc(OC)c(C(N)=O)c1O)=C\CC[C@@]1(C)O[C@@H]21
3. COc1ccc2[nH]c(-c3ccccc3)c(/C=C(\C#N)S(=O)(=O)c3ccccc3)c2c1
4. Cc1ccc(-c2nc(SCC(=O)Nc3nc(-c4ccc(Cl)cc4)cs3)[nH]c(=O)c2C#N)cc1
5. COc1ccc2nc(NCCCNCCO)c3sc4ccc(F)cc4c(=O)c3c2c1

Result:
1: -20; 2: 88.8; 3: 42.3; 4: 117; 5: -88.9

Give measured growth for every item shown.
1. CCCCCCNC(=O)Oc1ccc(/C(=C(\C)c2ccc(Cl)cc2)c2ccc(OCCCN(C)C)cc2)cc1
2. COc1cc(CCC[P+](c2ccccc2)(c2ccccc2)c2ccccc2)c(OC)c(OC)c1OC

Result:
1. 87.9
2. 57.7

Give measured growth for every item shown.
1. N#Cc1c(Nc2cccc(Cl)c2)sc(C(=O)c2cc3cc(Cl)ccc3o2)c1N
2. C/C=C(\C)C(=O)N[C@H]1[C@@H](OC(C)=O)C[C@]2(C)C3CC[C@@]4(C)C(CC[C@@H]4C(C)N(C)C)C3CCC2[C@H]1O (some centres undefined)
3. Cc1cccc(NCc2cn(-c3ccc(C(=O)O)cc3)nc2-c2ccc(C(=O)O)cc2)n1
4. CCCCn1c(=O)c(-c2cc(-c3ccc(Cl)cc3)nc(-c3ccc(Cl)cc3)c2)cc2ccc(Cl)cc21
5. c1ccc2cc(C[n+]3ccn(CCCCCCCCCCCCn4cc[n+](Cc5ccc6ccccc6c5)c4)c3)ccc2c1
6. CSc1ncccc1C(=O)OCC(=O)Nc1oc(C)c2c(C)n[nH]c(=O)c12
7. CCN1C(=O)N(CC)C2Nn3c(s/c(=C4\C(=O)Nc5ccccc54)c3=O)=NC21 (centres undefined)
8. COc1cc(/C=C/c2c(C(C)=O)c(C)nc3ccccc23)cc(OC)c1OC

Result:
84
37
98.5
96.1
-78.6
99.7
10.9
7.46
